Target: HIV-1 Env of pseudovirus THRO.18 (HIV-1)
Experiment: cell-based or functional assay
quantity: IC50, pseudovirus neutralization (TZM-bl assay) (µg/mL)
All answers are understood in µg/mL, so give the number only.

So for 1503_H05 (PG16) (TCN-119) (antibody, V domains shown) VH: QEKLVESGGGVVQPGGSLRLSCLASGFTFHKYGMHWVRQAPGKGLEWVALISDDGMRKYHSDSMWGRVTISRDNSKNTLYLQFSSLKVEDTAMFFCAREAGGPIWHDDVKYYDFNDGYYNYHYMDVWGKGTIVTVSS VL: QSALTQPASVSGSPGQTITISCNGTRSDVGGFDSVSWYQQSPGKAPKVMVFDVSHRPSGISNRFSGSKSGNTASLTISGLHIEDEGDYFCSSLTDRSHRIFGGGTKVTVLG , the logged IC50, pseudovirus neutralization (TZM-bl assay) turned out to be 4.12

Record 1456_A12 (PG16) (TCN-117) (antibody, V domains shown) VH: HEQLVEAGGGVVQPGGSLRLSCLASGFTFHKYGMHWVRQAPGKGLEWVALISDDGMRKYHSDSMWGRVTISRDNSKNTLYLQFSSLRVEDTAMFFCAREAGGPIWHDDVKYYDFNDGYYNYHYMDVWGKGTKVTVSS VL: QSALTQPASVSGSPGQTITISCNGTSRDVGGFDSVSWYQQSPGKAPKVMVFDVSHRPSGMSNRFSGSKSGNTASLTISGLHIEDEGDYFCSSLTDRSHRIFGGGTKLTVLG , field IC50, pseudovirus neutralization (TZM-bl assay): 2.08

Summary for this binder, 1469_M23 (PG16) (TCN-118) (antibody, V domains shown) VH: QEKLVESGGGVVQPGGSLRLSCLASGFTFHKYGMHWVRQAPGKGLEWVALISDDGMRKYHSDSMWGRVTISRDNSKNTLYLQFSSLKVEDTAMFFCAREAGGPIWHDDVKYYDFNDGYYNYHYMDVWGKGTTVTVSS VL: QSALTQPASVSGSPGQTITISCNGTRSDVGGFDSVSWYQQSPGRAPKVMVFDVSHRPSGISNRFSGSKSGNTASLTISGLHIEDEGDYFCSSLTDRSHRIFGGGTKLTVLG : IC50, pseudovirus neutralization (TZM-bl assay) is 7.01

GET /value?item= 1489_I13 (PG16) (TCN-120) (antibody, V domains shown) VH: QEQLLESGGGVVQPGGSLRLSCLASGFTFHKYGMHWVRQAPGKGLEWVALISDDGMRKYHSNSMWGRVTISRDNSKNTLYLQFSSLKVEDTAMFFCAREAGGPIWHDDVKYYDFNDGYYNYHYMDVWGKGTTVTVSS VL: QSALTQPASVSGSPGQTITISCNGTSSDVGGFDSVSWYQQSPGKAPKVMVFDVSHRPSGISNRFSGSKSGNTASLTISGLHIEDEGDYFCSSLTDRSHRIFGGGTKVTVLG &field=IC50, pseudovirus neutralization (TZM-bl assay) returns 7.41

Numbers sourced from patent US20240132578A1.
